Test system: Escherichia coli TOP10;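 note: peptides expressed intracellularly from a pBAD plasmid library in pooled LB shake-flask culture, induced with 0.3% L-arabinose, DNA abundance read by NGS, three biological replicates, DESeq2 with apeglm shrinkage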
Assay: shrunken log2 fold change of peptide-encoding DNA abundance (4.5 h post-induction vs induction); higher = less antimicrobial activity (less host growth inhibition)
Settings: time post-induction: 4.5 h; library: site-saturation at positions 5, 18, 19, 20
Label f if shrunken log2 fold change falls below -0.08; label t in every other case.

| SEQ | LABEL |
| --- | --- |
| RRIRERPPRLPRPRPRPQRQPRP | t |
| RRIRNRPPRLPRPRPRPIRWPRP | t |
| RRIRDRPPRLPRPRPRPTIPPRP | t |
| RRIRGRPPRLPRPRPRPQIWPRP | t |
| RRIRCRPPRLPRPRPRPMPHPRP | t |
| RRIRCRPPRLPRPRPRPINMPRP | f |
| RRIRIRPPRLPRPRPRPPEKPRP | t |
| RRIRHRPPRLPRPRPRPVWSPRP | f |
| RRIRPRPPRLPRPRPRPQMCPRP | f |
| RRIRHRPPRLPRPRPRPFVFPRP | t |
| RRIRHRPPRLPRPRPRPFVPPRP | f |
| RRIRKRPPRLPRPRPRPGSLPRP | t |
| RRIRGRPPRLPRPRPRPSTCPRP | t |
| RRIRIRPPRLPRPRPRPPECPRP | f |
| RRIRVRPPRLPRPRPRPFVGPRP | t |
